biological target: SARS-CoV-2 spike protein bearing furin mutation and truncation in retention sequence, presented in t (SARS-CoV-2, UniProt P0DTC2 14-1273); assay: cell-based or functional assay
Measured PV neutralization % (Ab 1 ug/mL) accompanies every entry in the list below.
Respond numerically; units are % and should not be typed.

These solved cases illustrate the format of a correct answer.
>  <Binder>
YANG-2301 (antibody, V domains shown) VH: QVHLIQSGAEVKKPGASVKVSCKVSGYTLIEVSVHWVRQAPGKGLEWMGGFDPEAAETIYAQKFQGRVTMTEDTSTDTAYMDLSSLKSEDSAVYYCAIGPAVTGRNSGEYYYYYGMDVWGQGTTVTVAS VL: EIVMTQSPATLSVSPGERATLSCRASQSVNSNLAWYQQKPGQAPRLLIYAVSTRATGLPARFSGSGSGTEFTLTISSLQSEDFVVYYCHQYNNWPLTFGGGTKVEIK

>  <PV neutralization % (Ab 1 ug/mL), %>
56.4

$$$$
>  <Binder>
YANG-2206 (antibody, V domains shown) VH: QIQLVQSGAEVKKPGASVKLSCKTSGYTFTSYYMVWVRQAPGQGLEWMGIIKPSGGNTIFAQKFQGRVTMTRDTSTNTVYMDLNSLRSEDTAVYYCARTGDRAFDVWGHGTMVTVSS VL: QSVLTQPPSVSAAPGQKVTISCSGSSSNIGNNYVSWYQQFPGTAPKLLIYDNNKRPSGIPDRFSGSKSGTSATLGITGLQTGDEADYYCGTWDSSLGAGVFGGGTKVTVL

>  <PV neutralization % (Ab 1 ug/mL), %>
42

$$$$

Next, consider the following binder.
Exam item: # PV neutralization % (Ab 1 ug/mL) lookup, item YANG-2205 (antibody, V domains shown) VH: QIQLVQSGAEVKKPGASVKFSCKTSGYTFTSYYMVWVRQAPGQGLEWMGIIKPSGGNTIYAQKFQGRVTMTRDTSTNTVYMDLSSLRSEDTAVYYCARTGDRAFDVWGHGTMITVSS VL: QSVLTQPPSVSAAPGQKVTISCSGSSSNIGNNFVSWYQQFPGTAPKLLIYDNNKRPSGIPDRFSGSKSGTSATLGITGLQTGDEADYYCGTWDSSLGAGVFGGGTKLTVL
Marked response: 47.5

Where do the numbers come from? From patent US20250026813A1.
